test: Glutathione peroxidase-like activity in pH 7.5 potassium phosphate buffer assessed as catalytic reduction of H2O2 by measuring initial velocity at 25 degreeC using GSH in presence of NADPH by UV absorbance analysis (reference value: 30.41+/- 2.06 microM/min)
Format: functional
V0 reference
Return type: number; implicit unit µM/min.

Use the examples below as a reference point.
smiles: O=c1c2ccccc2[se]n1-c1ccccc1
endpoint.unit: µM/min
V0: 153
//
smiles: CN1C(N)=N[C@](C)(c2cc(-n3[se]c4cc(F)ccc4c3=O)ccc2F)CS1(=O)=O
endpoint.unit: µM/min
V0: 183
//
smiles: COc1ccc2c(=O)n(-c3ccc(F)c([C@]4(C)CS(=O)(=O)N(C)C(N)=N4)c3)[se]c2c1
endpoint.unit: µM/min
V0: 114
//
smiles: Cc1cccc2c(=O)n(-c3ccc(F)c([C@]4(C)CS(=O)(=O)N(C)C(N)=N4)c3)[se]c12
endpoint.unit: µM/min
V0: 217
//
smiles: CN1C(N)=N[C@](C)(c2cc(-n3[se]c4ccccc4c3=O)ccc2F)CS1(=O)=O
endpoint.unit: µM/min
V0: 156

Request: Any idea what V0 was measured for COc1ccc2[se]n(-c3ccc(F)c([C@]4(C)CS(=O)(=O)N(C)C(N)=N4)c3)c(=O)c2c1 ?
Result: 161

Request: Field request: V0 | item: CN1C(N)=N[C@](C)(c2cc(-n3[se]c4cc(F)c(F)cc4c3=O)ccc2F)CS1(=O)=O
Result: 163

Request: Entry CN1C(N)=N[C@](C)(c2cc(NC(=O)c3ccc(F)cn3)ccc2F)CS1(=O)=O : reported V0 = ?
Result: 29.4

Request: Fill in the blank: the reported V0 of CN1C(N)=N[C@](C)(c2cc(-n3[se]c4c(C(F)(F)F)cccc4c3=O)ccc2F)CS1(=O)=O is ____.
Result: 180

Request: I am curious: what V0 value has been reported for Cc1ccc2c(=O)n(-c3ccc(F)c([C@]4(C)CS(=O)(=O)N(C)C(N)=N4)c3)[se]c2c1 ?
Result: 130

Request: I would be grateful if you could share the reported V0 for Cc1ccc2[se]n(-c3ccc(F)c([C@]4(C)CS(=O)(=O)N(C)C(N)=N4)c3)c(=O)c2c1 .
Result: 146

Request: # input compound: CN1C(N)=N[C@](C)(c2cc(-n3[se]c4cc(C(F)(F)F)ccc4c3=O)ccc2F)CS1(=O)=O ; wanted: its V0
Result: 145

Request: Can you look up the measured V0 of CN1C(N)=N[C@](C)(c2cc(-n3[se]c4c(F)cccc4c3=O)ccc2F)CS1(=O)=O for me?
Result: 242

Request: What value of measured V0 is listed for CN1C(N)=N[C@](C)(c2cc(-n3[se]c4ccc(C(F)(F)F)cc4c3=O)ccc2F)CS1(=O)=O ?
Result: 185

Request: Which value of V0 has been reported for CN1C(N)=N[C@](C)(c2cc(-n3[se]c4ccc(F)cc4c3=O)ccc2F)CS1(=O)=O in the records?
Result: 197

* * *

test: in vitro
conditions.used: PAMPA
Please note: fulfilled applies when Papp at 16 h is 7 ×10⁻⁶ cm/s or greater, and not fulfilled applies otherwise.

Recorded results for 4 compounds are shown here.
compound: C[C@]12CC[C@@H]3c4ccc(O)cc4CC[C@H]3[C@@H]1CC[C@@H]2O
category: fulfilled
//
compound: CN1C(C(=O)Nc2ccccn2)=C(O)c2ccccc2S1(=O)=O
category: not fulfilled
//
compound: CCn1cc(C(=O)O)c(=O)c2cc(F)c(N3CCNC(C)C3)c(F)c21 (stereo not given)
category: not fulfilled
//
compound: Clc1cccc(Cl)c1N=C1NCCN1
category: fulfilled

Request: State whether the measured Papp at 16 h reaches 7 ×10⁻⁶ cm/s, counting equality as reaching it, for CN1C(N)=N[C@](C)(c2cc(-n3[se]c4cc(F)ccc4c3=O)ccc2F)CS1(=O)=O
Result: fulfilled

* * *

Beta-secretase 1 (Homo sapiens) measurements of pIC50, listed per entry.
Sequence (P56817 whole entry): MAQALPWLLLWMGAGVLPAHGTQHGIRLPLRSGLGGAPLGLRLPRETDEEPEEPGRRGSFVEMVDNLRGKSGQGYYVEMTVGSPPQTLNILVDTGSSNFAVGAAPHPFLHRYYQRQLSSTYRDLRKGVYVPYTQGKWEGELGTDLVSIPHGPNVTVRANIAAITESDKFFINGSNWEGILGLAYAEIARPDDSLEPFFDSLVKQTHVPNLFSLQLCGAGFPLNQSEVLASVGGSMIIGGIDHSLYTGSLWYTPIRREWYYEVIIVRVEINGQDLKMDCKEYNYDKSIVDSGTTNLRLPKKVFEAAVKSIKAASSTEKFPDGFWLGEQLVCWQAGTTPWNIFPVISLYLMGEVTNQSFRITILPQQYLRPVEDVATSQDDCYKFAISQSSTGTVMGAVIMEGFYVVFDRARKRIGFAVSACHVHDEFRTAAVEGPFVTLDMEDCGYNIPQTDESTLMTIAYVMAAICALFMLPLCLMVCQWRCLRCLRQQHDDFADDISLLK
Value format note: pIC50 is -log10 of concentration (mol/L); just state the number.

These solved cases illustrate the format of a correct answer.
smiles: CN1C(N)=N[C@](C)(c2cc(-n3[se]c4ccc(C(F)(F)F)cc4c3=O)ccc2F)CS1(=O)=O
pIC50: 5.80
//
smiles: COc1ccc2[se]n(-c3ccc(F)c([C@]4(C)CS(=O)(=O)N(C)C(N)=N4)c3)c(=O)c2c1
pIC50: 5.83
//
smiles: CN1C(N)=N[C@](C)(c2cc(-n3[se]c4cc(F)ccc4c3=O)ccc2F)CS1(=O)=O
pIC50: 5.97

Request: Which pIC50 value is on record for CN1C(N)=N[C@](C)(c2cc(-n3[se]c4cc(F)c(F)cc4c3=O)ccc2F)CS1(=O)=O ?
Result: 5.95
